assay procedure: molar heat capacity at constant pressure
measurement parameters: 276.15 K; 101.33 kPa; Crystal; Small sample (50 mg) DSC
endpoint name: molar heat capacity at constant pressure (J/K/mol)

{"compound": "OC[C@@H](O)[C@@H](O)[C@H](O)[C@H](O)CO", "molar heat capacity at constant pressure, J/K/mol": 213.85}
{"compound": "OC[C@@H](O)[C@H](O)[C@@H](O)CO", "molar heat capacity at constant pressure, J/K/mol": 193.1}
{"compound": "OC[C@@H](O)C(O)[C@H](O)CO", "molar heat capacity at constant pressure, J/K/mol": 185.01}
{"compound": "O[C@H]1[C@H](O)[C@@H](O)[C@H](O)[C@@H](O)[C@H]1O [cis-1,2,3,5-trans-4,6-cyclohexanehexol]", "molar heat capacity at constant pressure, J/K/mol": 201.09}
{"compound": "OC[C@H](O)C(O)[C@@H](O)CO [L-(-)-arabitol]", "molar heat capacity at constant pressure, J/K/mol": 192.48}
{"compound": "OC[C@@H](O)[C@@H](O)CO", "molar heat capacity at constant pressure, J/K/mol": 152.44}
